Measured pKd accompanies every entry in the list below.
# assayTarget: T1, human alpha CGRP (SEQ ID NO: 80) (human, not fully specified)
# T1 construct: also called human αCGRP; hαCGRP
# T1 peptide: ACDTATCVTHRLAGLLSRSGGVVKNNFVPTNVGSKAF
# assayProcedure: SPR, 37 C, mutein captured, CGRP analyte
pKd: −log10 of the molar value.
assayEndpoint: pKd

lipocalin mutein SEQ ID NO: 28 (designed binder, biotinylated by NHS chemistry for capture in SPR) QDSTSDLIPAPPLSKVPLQQNFQDNQFHGKWYVVGWAGNTLLREDKDPIKMQAIIYELKEDRSYNVTWVYFSEKKCNYHIETFVPGSQPGEFTLGTIKSYPGETPILVRVMSTNYNQHAMVFFKGVNQNREIFEIILYGRTKELTNELKENFIRFSKSLGLPENHIVFPVPIDQCIDGSAWSHPQFEK    10.51
lipocalin mutein SEQ ID NO: 19 (designed binder, biotinylated by NHS chemistry for capture in SPR) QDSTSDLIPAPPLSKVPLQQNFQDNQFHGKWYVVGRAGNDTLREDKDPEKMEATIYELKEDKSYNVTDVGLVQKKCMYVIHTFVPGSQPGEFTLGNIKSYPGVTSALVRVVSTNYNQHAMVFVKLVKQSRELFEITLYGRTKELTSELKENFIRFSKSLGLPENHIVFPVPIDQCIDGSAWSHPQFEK    11.30
